Listed below are compounds with pKi for Caspase-1 (Homo sapiens), each taken from published literature.
pKi: −log10 of the molar value.
Measured property: pKi

INSERT INTO measurements (compound, value_prefix, data_value) VALUES
  ('CC(=O)N[C@@H](Cc1ccc(O)cc1)C(=O)N[C@H](C(=O)N[C@@H](C)C(=O)N[C@@H](CC(=O)O)C(=O)c1ccccc1)C(C)C (stereo in doubt; 7c)', '<', 4.00),
  ('O=C[C@H](CC(=O)O)NC(=O)C(CCCCNC(=O)c1ccc(Nc2cnc3ccccc3n2)cc1)c1cccs1 (some centres undefined)', '=', 8.15),
  ('CC(C)c1ccc(Oc2ccccc2S(=O)(=O)N[C@H](C=O)C(=O)O)cc1', '=', 6.21),
  ('CC(C)[C@H](NC(=O)OCc1ccccc1)C(=O)N[C@@H](C)C(=O)N[C@H](C=O)CC(=O)O', '=', 7.82);
